Please provide measured Kb for the entries that follow.
- system-name: human H1R (Homo sapiens, UniProt P35367)
- Construct: expressed in transfected cells; host or cells: CHO cells
- Sequence (P35367 whole entry): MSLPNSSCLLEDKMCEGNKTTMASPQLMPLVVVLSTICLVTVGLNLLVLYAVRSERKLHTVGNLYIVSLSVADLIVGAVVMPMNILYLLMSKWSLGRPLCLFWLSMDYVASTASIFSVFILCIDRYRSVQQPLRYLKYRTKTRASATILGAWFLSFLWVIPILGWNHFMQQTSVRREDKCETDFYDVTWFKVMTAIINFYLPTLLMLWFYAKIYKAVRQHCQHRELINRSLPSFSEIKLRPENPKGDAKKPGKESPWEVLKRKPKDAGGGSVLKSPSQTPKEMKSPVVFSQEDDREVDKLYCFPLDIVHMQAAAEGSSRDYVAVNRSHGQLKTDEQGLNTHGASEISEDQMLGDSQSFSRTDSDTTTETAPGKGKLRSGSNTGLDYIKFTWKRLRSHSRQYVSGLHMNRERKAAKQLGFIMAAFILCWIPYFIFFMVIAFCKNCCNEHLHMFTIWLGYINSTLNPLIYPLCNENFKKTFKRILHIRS
- assay: Ca2+ mobilization assay on human H1R-expressing CHO cells
- Type: cell-based
- run-parameters: Gaddum equation, shift in histamine EC25 with 1 μM antagonist; read-out: KB (converted)
Square brackets hold non-standard residues; d marks the D form. Peptide text beside a SMILES is read from it. * marks the point of attachment. X1 = O=C(COc1ccc(/C=C/C2=[N+]3C(=Cc4ccc(-c5cccs5)n4[B-]3(F)F)C=C2)cc1)*; Propanoyl(3-Pip(4-O-2-BnPh)) = O=C(CCN1CCC(Oc2ccccc2Cc2ccccc2)CC1)*; BODIPY(FL) = CC1=CC(C)=[N+]2C1=Cc1ccc(CCC(=O)*)n1[B-]2(F)F; X2 = O=C(CCC1=[N+]2C(=Cc3ccc(-c4cccs4)n3[B-]2(F)F)C=C1)*; βAla = NCCC(=O)O
# unit: nM | format: bare number

-- ask Tell me its Kb given CC(C)[C@H](NC(=O)CCN1CCC(Oc2ccccc2Cc2ccccc2)CC1)C(=O)N[C@@H](CO)C(=O)N[C@@H](CC(N)=O)C(=O)NCCC(=O)N[C@@H](CCCCNC(=O)CCC1=[N+]2C(=Cc3ccc(-c4cccs4)n3[B-]2(F)F)C=C1)C(N)=O [Compound 38c] ({Propanoyl(3-Pip(4-O-2-BnPh))}-VSN[βAla]K(X2)-NH2) as the entry.
-- reply 302

-- ask Input Cc1cc(C)n2c1C=C1C=CC(CCC(=O)NCCCC[C@H](NC(=O)CCNC(=O)[C@H](CC(N)=O)NC(=O)[C@H](CO)NC(=O)[C@@H](NC(=O)CCN3CCC(Oc4ccccc4Cc4ccccc4)CC3)C(C)C)C(N)=O)=[N+]1[B-]2(F)F [Compound 38d] ({Propanoyl(3-Pip(4-O-2-BnPh))}-VSN[βAla]K(BODIPY(FL))-NH2) , output reported Kb.
-- reply 112

-- ask Specify measured Kb for CC(C)[C@H](NC(=O)CCN1CCC(Oc2ccccc2Cc2ccccc2)CC1)C(=O)N[C@@H](CO)C(=O)N[C@@H](CC(N)=O)C(=O)NCCC(=O)N[C@@H](CCCCNC(=O)COc1ccc(/C=C/C2=[N+]3C(=Cc4ccc(-c5cccs5)n4[B-]3(F)F)C=C2)cc1)C(N)=O [Compound 31a] ({Propanoyl(3-Pip(4-O-2-BnPh))}-VSN[βAla]K(X1)-NH2) .
-- reply 3
